Molecular target: human P2X4 (Homo sapiens)
Construct: expressed in transfected cells
Test: Human P2X4 HEK Cell FLIPR Assay
Assay type: cell-based
Settings: HEK293 stably expressing human P2X4; agonist Bz-ATP 3 μM (EC80)
Would you mind telling me the reported Human P2X4 HEK Cells (FLIPR Assay) avg Efficacy of each entry?
Please respond with the number in % and leave the unit unwritten.

Problem: Please report Human P2X4 HEK Cells (FLIPR Assay) avg Efficacy for the following molecule: CC(=O)N(c1cc(F)c(C)c(F)c1)c1cc(NC(=O)Cc2c(Cl)cccc2Cl)ccn1 [Example 95]
Solution: 100

Problem: Identify measured Human P2X4 HEK Cells (FLIPR Assay) avg Efficacy associated with CC(=O)N(c1cccc(F)c1)c1cc(NC(=O)Cc2cccc(F)c2Cl)cnn1 [Example 195]
Solution: 95

Problem: Name the recorded Human P2X4 HEK Cells (FLIPR Assay) avg Efficacy of the molecule listed here: COc1ccc(N(C(C)=O)c2cc(NC(=O)Cc3ccccc3Cl)ccn2)cc1F [Example 77]
Solution: 94

---

Biological target: human P2X4 (Homo sapiens, UniProt Q99571)
Construct: expressed in transfected cells
Sequence (Q99571 whole entry): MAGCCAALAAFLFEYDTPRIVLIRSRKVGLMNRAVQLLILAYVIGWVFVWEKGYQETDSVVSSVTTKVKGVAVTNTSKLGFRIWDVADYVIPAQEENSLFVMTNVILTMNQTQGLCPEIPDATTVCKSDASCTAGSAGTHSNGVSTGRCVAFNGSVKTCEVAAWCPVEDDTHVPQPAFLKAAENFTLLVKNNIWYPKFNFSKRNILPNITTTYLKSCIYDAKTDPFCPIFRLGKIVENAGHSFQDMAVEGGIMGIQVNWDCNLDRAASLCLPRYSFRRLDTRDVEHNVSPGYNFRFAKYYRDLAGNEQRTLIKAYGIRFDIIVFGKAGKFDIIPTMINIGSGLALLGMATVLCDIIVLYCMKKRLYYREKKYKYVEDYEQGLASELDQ
Test: Human P2X4 HEK Cell FLIPR Assay
Assay type: cell-based
Conditions: HEK293 stably expressing human P2X4; agonist Bz-ATP 3 μM (EC80)
Assignment: determine reported Human P2X4 HEK Cells (FLIPR Assay) avg Efficacy for the given compounds.
Note: unit % is implicit; provide only the numeric part.

Problem: Let me know recorded Human P2X4 HEK Cells (FLIPR Assay) avg Efficacy for CC(=O)N(c1ccc(F)c(F)c1)c1cc(NC(=O)Cc2ccccc2Cl)ccn1 [Example 1] , thanks.
Solution: 89

Problem: Specify measured Human P2X4 HEK Cells (FLIPR Assay) avg Efficacy for CC(=O)N(c1cc(NC(=O)Cc2ccccc2Cl)ccn1)c1ccccc1Cl [Example 106] .
Solution: 95

Problem: Identify Human P2X4 HEK Cells (FLIPR Assay) avg Efficacy associated with the compound CC(=O)N(c1cc(F)cc(F)c1)c1cc(NC(=O)Cc2cccc(C)c2C)ccn1 [Example 83]
Solution: 97

Problem: Note Human P2X4 HEK Cells (FLIPR Assay) avg Efficacy for the compound shown: CC(=O)N(c1cc(F)c(C)c(F)c1)c1cc(NC(=O)Cc2ccc(F)cc2Cl)ccn1 [Example 93]
Solution: 98

Problem: Provide Human P2X4 HEK Cells (FLIPR Assay) avg Efficacy value for the following compound: CC(=O)N(c1cc(NC(=O)Cc2cccc(C(F)(F)F)c2Cl)ccn1)c1ccccc1Cl [Example 105]
Solution: 100

Problem: Consider the compound CC(=O)N(c1cc(NC(=O)Cc2c(Cl)cccc2Cl)ccn1)c1ccc(F)cc1Cl [Example 152] and give its recorded Human P2X4 HEK Cells (FLIPR Assay) avg Efficacy.
Solution: 104

Problem: Input CC(=O)N(c1cc(F)cc(C#N)c1)c1cc(NC(=O)Cc2cccc(F)c2Cl)ccn1 [Example 147] , output reported Human P2X4 HEK Cells (FLIPR Assay) avg Efficacy.
Solution: 97

Problem: Please supply the value of reported Human P2X4 HEK Cells (FLIPR Assay) avg Efficacy for the item CC(=O)N(c1ccc(F)cc1)c1cc(NC(=O)Cc2cccc(F)c2C(F)(F)F)ccn1 [Example 32]
Solution: 101

Problem: Input CC(=O)N(c1cc(F)cc(F)c1)c1cc(NC(=O)Cc2c(F)cccc2Cl)cnn1 [Example 208] , output reported Human P2X4 HEK Cells (FLIPR Assay) avg Efficacy.
Solution: 91

Problem: Retrieve Human P2X4 HEK Cells (FLIPR Assay) avg Efficacy measured for CC(=O)N(c1ccc(C#N)c(C(F)(F)F)c1)c1cc(NC(=O)Cc2c(Cl)cccc2Cl)ccn1 [Example 12] and print it.
Solution: 101

Problem: Write down Human P2X4 HEK Cells (FLIPR Assay) avg Efficacy measured for item CC(=O)N(c1ccc(F)c(F)c1)c1cc(NC(=O)Cc2c(F)cccc2Cl)cnn1 [Example 203]
Solution: 86

Problem: // Input: CC(=O)N(c1ccc(Cl)c(C#N)c1)c1cc(NC(=O)Cc2ccccc2Cl)ccn1 [Example 16] . Output its Human P2X4 HEK Cells (FLIPR Assay) avg Efficacy only.
Solution: 95

Problem: Give Human P2X4 HEK Cells (FLIPR Assay) avg Efficacy for the following compound: CC(=O)N(c1ccc(F)cc1)c1cc(NC(=O)Cc2cccc(F)c2Cl)cnn1 [Example 191]
Solution: 92

Problem: Give me measured Human P2X4 HEK Cells (FLIPR Assay) avg Efficacy, please, for this compound: CC(=O)N(c1cc(NC(=O)Cc2c(F)cccc2Cl)ccn1)c1ccc(C)cc1C [Example 172]
Solution: 104

Data credit: patent US20230257351A1
